measurement_type: melting point

Use these answered entries as a reference point.
Query: State, in one line, measured melting point of CCOC(=O)COc1ccc2c(c1)CC(NC[C@H](O)COc1ccccc1)CCC2.Cl (some centres unmarked)
Response: 122 to 128 °C

Query: Fill in melting point for record O=C([O-])COc1cccc2c1CCCC(NC[C@H](O)COc1ccccc1)C2.[Na+] (some centres unmarked)
Response: 65 °C (dec.)

Next:
Query: Answer with the recorded melting point of C=CCOc1ccccc1OCC(O)CN[C@H]1CCc2ccc(OCC(=O)OCC)cc2C1.O=C(O)C(=O)O (some centres unmarked) only.
Response: 105 to 109 °C

Query: Report melting point, nothing else, for this compound: CCOC(=O)COc1cccc2c1CCCC(NC[C@H](O)COc1ccccc1)C2.Cl (some centres unmarked)
Response: 43 to 58 °C

Query: Supply recorded melting point for O=C([O-])COc1ccc2c(c1)CCCC(NC[C@H](O)COc1ccccc1)C2.[Na+] (some centres unmarked) here.
Response: 166 to 174 °C
